test system: ENR+CD organoids (ISC to Paneth cell differentiation); test: Primary screen: basal (non-stimulated) lysozyme secretion LYZ.NS, 2.5-D 384-well ENR+CD organoid differentiation; format: cell-based, mouse; conditions: primary screen, standard z score, dose 10.00 uM
Structures can show the parent of a compound that is named as a salt.
Endpoint Name: Z.LYZ.NS

Would you mind telling me what Z.LYZ.NS value was observed for "Cn1cc(C2=C(c3cn(C4CCN(Cc5ccccn5)CC4)c4ccccc34)C(=O)NC2=O)c2ccccc21" ? −1.012

Suppose we examine the compound "CC(C)C[C@H](NC(=O)[C@@H](NC(=O)c1cccc(-c2ccccc2)n1)[C@@H](C)O)B(O)O" ; what Z.LYZ.NS value has been reported? −0.308

Given the entry "CCN(CC)C(=O)/C(C#N)=C/c1cc(O)c(O)c([N+](=O)[O-])c1" , report its measured Z.LYZ.NS. 0.870

Consider the compound shown here: CNC(=O)c1ccc(N2C(=S)N(c3ccc(C#N)c(C(F)(F)F)c3)C(=O)C2(C)C)cc1F [Enzalutamide (MDV3100)] What is its recorded Z.LYZ.NS? 0.820

Could you tell me which Z.LYZ.NS is on file for COCCCC/C(=N\OCCN)c1ccc(C(F)(F)F)cc1 [Fluvoxamine maleate] ? −0.235

Query (compound): C[C@@H](NCCCc1cccc(C(F)(F)F)c1)c1cccc2ccccc12 [Cinacalcet HCl] ; field requested: Z.LYZ.NS −0.790

For "C=C[C@@]1(C)CC(=O)[C@]2(O)[C@@]3(C)[C@@H](O)CCC(C)(C)[C@@H]3[C@H](O)[C@H](OC(C)=O)[C@@]2(C)O1" , what is its reported Z.LYZ.NS? 1.905

Look up Z.LYZ.NS: CC(C)(C)NC(=O)[C@H]1CC[C@H]2[C@@H]3CC[C@H]4NC(=O)C=C[C@]4(C)[C@H]3CC[C@]12C [Finasteride, reference compound] 0.587

# query: Z.LYZ.NS of entry "Cc1nc(C(=O)NCC(=O)O)c(O)c2ccc(Oc3ccccc3)cc12" 0.265
